Below, each entry is listed with its recorded pIC50.
# target_desc: T1, HER3-ECD融合蛋白 (human)
# T1 construct: also called HER3-ECD fusion protein
# experiment_description: competition ELISA: Trx-HRG coated (10 μg/ml), HER3-ECD fusion protein 1 μg/ml pre-incubated with antibody, anti-hGH detection
Keep in mind that pIC50 stands for -log10 of concentration in molar terms.

Kindly note the recorded pIC50 for HER3鼠源单克隆抗体993 (antibody, V domains shown, Mouse monoclonal antibody from hybridoma ascites, purified on protein G; also called HER3抗体993) VH: EVKLVESGGGLVKPGGSLKLSCAASGFTFSSYSLSWVRQTPEKRLEWVASITFGGTAYYSDSVKGRFTISRDNARNILYLQMSSLKSEDTAMYYCVRGDGYEDPMDYWGQGTSVTVSS VL: DIVMTQTTVSLAVSLGQRATISCRASESVDSYGKSFMHWYQQKPGQPPKLLIYRASNLESGIPARFSGSGSRTDFTLTINPVEADDVSTYYCQQSNEDPYTFGGGTKLEIR , which is 9.52

Entry HER3鼠源单克隆抗体927 (antibody, V domains shown, Mouse monoclonal antibody from hybridoma ascites, purified on protein G; also called HER3抗体927) VH: EVQLQQSGPELVKPGASVKISCKASGYSFTSYYIHWVKQRPGQGLEWIGWIFPRSGHTNYNEKFKGKATLTADTSSSTAYMQVSSLTSEDSAVYFCARSRDYYGTNAMDYWGQGTSVTVSS VL: DIVMTQSPSSLTVTAGEKVTMSCKSSQSLFNSGNQKNYLTWYQQKPGQPPKLLIYWASTRESGVPDRFTGSGSGTDFTLTISSVQAEDLAVYYCQNDYSYPYTFGGGTKLEIKR ; pIC50 = 8.82

Kindly note the recorded pIC50 for HER3鼠源单克隆抗体1050 (antibody, V domains shown, Mouse monoclonal antibody from hybridoma ascites, purified on protein G; also called HER3抗体1050) VH: QVQLQQSGPELVKPGASVKISCKASGYSFTSYYIHWVKQRPGQGLEWIGWIFPGSGHTKCNENFKAKATLTADTSSSTAYMQLSSLTSEDSAVYFCARSRDYYGSNAVDYWGQGTSVTVSS VL: DIVMTQSPSSLTVTAGEKVTMSCKSSQSLLNSGNQKNYLTWYQQKPGQPPKLLIYWASTRESGVPDRFSGSGSGTDFTLTISSVQAEDLAVYYCQNDYSYPYTFGGGTKLEIKR , which is 8.55

Now consider a different binder.
Consider HER3鼠源单克隆抗体1044 (antibody, V domains shown, Mouse monoclonal antibody from hybridoma ascites, purified on protein G; also called HER3抗体1044) VH: EVQLQQSGTELMKPGASVKISCKATGGTFSNYWIDWVKQRPGHGLEWIGEILPGSGGTDYNEKFKGKATFTADTSSNTAYMQLSSLTSEDSAVYYCARDDYDVFAYWGQGTLVTVSS VL: DIVMTQAAFSNPVTLGTSASISCRSSKSLLHSNGITYLYWYLQKPGQSPQLLIYQMSNLASGVPDRFSSSGSGTDFTLRISRVEAEDVGVYYCAQNLELPWTFGGGTKLEIKR . Its measured pIC50 is 8.64
